Just for reference, BindingDB's records for patent US20240190824 is where these values come from.

Recorded pIC50 by entry
Assayed System: Potassium channel subfamily K member 2 (Homo sapiens)
Sequence (O95069 whole entry): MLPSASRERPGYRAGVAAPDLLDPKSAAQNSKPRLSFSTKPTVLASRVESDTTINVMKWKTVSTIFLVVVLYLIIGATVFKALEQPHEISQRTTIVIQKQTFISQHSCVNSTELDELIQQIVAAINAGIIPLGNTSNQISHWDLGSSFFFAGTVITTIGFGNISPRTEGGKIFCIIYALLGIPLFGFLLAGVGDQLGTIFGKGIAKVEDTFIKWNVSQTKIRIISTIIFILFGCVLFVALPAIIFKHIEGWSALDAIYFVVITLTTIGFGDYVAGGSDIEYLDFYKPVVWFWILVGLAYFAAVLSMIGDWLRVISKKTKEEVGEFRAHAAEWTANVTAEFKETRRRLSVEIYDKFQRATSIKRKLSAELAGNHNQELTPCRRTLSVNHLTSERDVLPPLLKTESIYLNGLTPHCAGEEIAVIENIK
Protocol Notes: Thallium flux assay
Recall that pIC50 is obtained by taking minus log10 of the concentration measured in molar.

Molecule: Cc1cc(C#Cc2cccc(F)c2)nc(C)c1NC(=O)c1cc(NC(=O)OC(C)(C)C)ccc1Cl
pIC50: 6.39
--
Molecule: Cc1cc(COc2ccc(Cl)c(C(=O)Nc3ncc(C#Cc4ccccc4)cc3C)c2)on1
pIC50: 6.41
--
Molecule: CC(C)(C)OC(=O)Nc1ccc(Cl)c(C(=O)Nc2c(F)cc(C#Cc3ccccc3)cc2F)c1
pIC50: 6.66
--
Molecule: Cc1cc(C#Cc2ccccc2)cc(F)c1NC(=O)c1cc(NC(=O)OC(C)(C)C)ccc1Cl
pIC50: 6.68

Field: next molecule
Reported Potassium channel subfamily K member 2 (Homo sapiens) pIC50 for item Cc1cc(C#Cc2ccccc2)cnc1NC(=O)c1cc(OCC2CCOC2)ccc1Cl (stereo not given) was 6.31
